biological target: recombinant human serotonin receptor 5-HT2A (Homo sapiens); construct: expressed in transfected cells; method B: loaded with Ca2+ dye; experiment: 5-HT2A antagonist Ca2+ assay in CHO-K1 cells (method A aequorin luminescence / method B FLIPR fluorescence); format: cell-based; details: antagonist mode vs EC80 of reference agonist, method A or B, read-out: 5HT2A IC50
Sequence (P28223 whole entry): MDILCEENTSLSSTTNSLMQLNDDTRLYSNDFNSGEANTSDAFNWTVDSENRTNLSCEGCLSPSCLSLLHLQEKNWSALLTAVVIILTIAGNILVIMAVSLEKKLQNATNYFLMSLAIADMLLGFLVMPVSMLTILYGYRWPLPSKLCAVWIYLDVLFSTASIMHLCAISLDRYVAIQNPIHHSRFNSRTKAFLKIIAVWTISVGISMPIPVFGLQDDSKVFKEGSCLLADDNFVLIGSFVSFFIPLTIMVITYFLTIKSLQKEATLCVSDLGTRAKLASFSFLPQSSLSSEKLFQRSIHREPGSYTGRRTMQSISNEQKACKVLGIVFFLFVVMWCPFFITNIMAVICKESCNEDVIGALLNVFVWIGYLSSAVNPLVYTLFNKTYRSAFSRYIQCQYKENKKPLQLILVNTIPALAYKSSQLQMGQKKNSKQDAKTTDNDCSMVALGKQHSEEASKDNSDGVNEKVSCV
pIC50: −log10 of the molar value.
Parameter: pIC50

• O=C1c2ccccc2CCN1CCN1CCC(Oc2cccc(Cl)c2)CC1 = 6.96
• c1ccc2c(c1)CC1(CCN(CC3Cc4ccncc4C3)CC1)O2 (centres unmarked) = 5.02
• c1ccc(N2C[C@@H]3C[C@H]2CN3CC2CCc3ccccc32)cc1 (some centres unmarked) = 5.59
• COc1cccc(OC2CCN(CCN3CCc4ccccc4C3=O)CC2)c1 = 6.59
